Tested Target: Epidermal growth factor receptor (Homo sapiens, UniProt P00533)
Sequence (P00533 whole entry): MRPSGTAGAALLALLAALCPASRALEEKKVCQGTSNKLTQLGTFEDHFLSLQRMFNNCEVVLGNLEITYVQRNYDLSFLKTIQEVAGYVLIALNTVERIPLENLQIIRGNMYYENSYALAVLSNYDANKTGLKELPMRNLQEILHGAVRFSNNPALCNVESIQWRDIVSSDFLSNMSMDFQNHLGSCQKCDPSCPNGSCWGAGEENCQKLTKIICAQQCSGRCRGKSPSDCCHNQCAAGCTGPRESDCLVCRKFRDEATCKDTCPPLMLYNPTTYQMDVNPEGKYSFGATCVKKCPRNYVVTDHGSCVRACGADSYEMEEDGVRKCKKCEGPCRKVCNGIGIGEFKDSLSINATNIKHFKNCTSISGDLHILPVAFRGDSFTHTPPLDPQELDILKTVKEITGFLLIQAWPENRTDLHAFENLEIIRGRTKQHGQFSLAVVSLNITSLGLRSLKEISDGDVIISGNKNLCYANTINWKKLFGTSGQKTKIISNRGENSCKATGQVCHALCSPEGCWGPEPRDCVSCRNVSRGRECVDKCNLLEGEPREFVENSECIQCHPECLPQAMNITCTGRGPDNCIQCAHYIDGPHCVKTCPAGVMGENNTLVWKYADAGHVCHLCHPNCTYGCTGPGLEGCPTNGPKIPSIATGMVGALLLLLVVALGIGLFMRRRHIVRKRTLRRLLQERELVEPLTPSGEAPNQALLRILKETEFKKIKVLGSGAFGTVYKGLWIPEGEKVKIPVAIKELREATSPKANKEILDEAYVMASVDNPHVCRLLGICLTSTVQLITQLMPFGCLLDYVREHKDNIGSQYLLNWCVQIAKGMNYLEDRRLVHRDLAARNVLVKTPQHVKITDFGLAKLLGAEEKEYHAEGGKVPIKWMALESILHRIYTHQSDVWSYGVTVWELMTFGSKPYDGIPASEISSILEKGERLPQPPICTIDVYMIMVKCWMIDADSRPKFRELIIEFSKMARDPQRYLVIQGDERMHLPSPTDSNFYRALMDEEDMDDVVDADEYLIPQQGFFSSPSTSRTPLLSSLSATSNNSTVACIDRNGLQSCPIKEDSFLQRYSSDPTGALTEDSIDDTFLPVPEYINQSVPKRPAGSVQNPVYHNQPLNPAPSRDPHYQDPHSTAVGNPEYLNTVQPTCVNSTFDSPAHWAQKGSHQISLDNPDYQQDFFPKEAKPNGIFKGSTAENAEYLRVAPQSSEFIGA
Assay type: cell-based, KB
Description: Inhibition of EGF-stimulated autophosphorylation of EGFR in human KB cells incubated for 1 hr prior to EGF challenge measured after 6 mins by ELISA
Endpoint Name: pIC50
Friendly reminder that pIC50 comes from taking -log10 of the concentration in mol/L.

Qu. Which pIC50 value belongs to `C#Cc1cccc(Nc2ncnc3cc4c(cc23)N(C(=O)/C=C/CN2CCC(C)CC2)CCO4)c1` ?
Ans. 7.09

Qu. Which pIC50 value belongs to `C#Cc1cccc(Nc2ncnc3cc4c(cc23)N(C(=O)/C=C/CN(CC)CC)CCO4)c1` ?
Ans. 7.38

Qu. Which pIC50 value belongs to `C#Cc1cccc(Nc2ncnc3cc4c(cc23)N(C(=O)/C=C/CN2CCCCC2)CCO4)c1` ?
Ans. 7.38

Qu. Which pIC50 value belongs to `C#Cc1cccc(Nc2ncnc3cc4c(cc23)N(C(=O)/C=C/CN2CCOCC2)CCO4)c1` ?
Ans. 6.19

Qu. Which pIC50 value belongs to `C#Cc1cccc(Nc2ncnc3cc4c(cc23)N(C(=O)/C=C/CN(C)C)CCO4)c1` ?
Ans. 7.34

Qu. Which pIC50 value belongs to `C#Cc1cccc(Nc2ncnc3cc4c(cc23)N(C(=O)/C=C/CN2CCCC2)CCO4)c1` ?
Ans. 7.22

Qu. Which pIC50 value belongs to `C#Cc1cccc(Nc2ncnc3cc4c(cc23)N(C(=O)/C=C/CN2CCN(C)CC2)CCO4)c1` ?
Ans. 6.11
